assay: Cytotoxicity against mouse RAW264.7 cells after 4 hrs by MTT assay; format: cell-based; details: read-out: TD50
Label true (1) when CC50 at 4 h is strictly below 20 µg/mL; at or above that, label false (0).

Check if CC50 at 4 h falls below 20 µg/mL for `CC(C)NC(=O)N[C@H](CNC(=O)N[C@@H](CCCCN)CNC(=O)N[C@H](CNC(=O)N[C@H](CNC(=S)N[C@@H](CCCCN)CNC(=O)N[C@H](CNC(=O)N[C@@H](CCCCN)CNC(=O)N[C@H](CNC(N)=O)C(C)C)Cc1c[nH]c2ccccc12)C(C)C)Cc1c[nH]c2ccccc12)C(C)C` .
false (0)

Quick check: CC50 at 4 h of `CC(C)NC(=O)N[C@H](CNC(=S)N[C@@H](CCCCN)CNC(=O)N[C@H](CNC(=O)N[C@H](CNC(=O)N[C@@H](CCCCN)CNC(=O)N[C@H](CNC(=O)N[C@@H](CCCCN)CNC(=O)N[C@H](CNC(N)=O)C(C)C)Cc1c[nH]c2ccccc12)C(C)C)Cc1c[nH]c2ccccc12)C(C)C` under 20 µg/mL?
false (0)

Criterion: CC50 at 4 h strictly below 20 µg/mL. Is it met by `CC(C)NC(=O)N[C@H](CNC(=O)N[C@@H](CCCCN)CNC(=O)N[C@H](CNC(=O)N[C@H](CNC(=O)N[C@@H](CCCCN)CNC(=O)N[C@H](CNC(=O)N[C@@H](CCCCN)CNC(=N)N[C@H](CCC(N)=O)C(C)C)Cc1c[nH]c2ccccc12)C(C)C)Cc1c[nH]c2ccccc12)C(C)C` ?
true (1)

Determine whether this compound shows CC50 at 4 h lower than 20 µg/mL (ties excluded): `CC(C)NC(=O)N[C@H](CNC(=O)N[C@@H](CCCCN)CNC(=O)N[C@H](CNC(=O)N[C@H](CNC(=O)N[C@@H](CCCCN)CNC(=O)N[C@H](CNC(=O)N[C@@H](CCCCN)CNC(=O)N[C@H](CNC(N)=S)C(C)C)Cc1c[nH]c2ccccc12)C(C)C)Cc1c[nH]c2ccccc12)C(C)C`
false (0)
